- Test system: CLK4;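 note: KINOMEscan kinase panel screen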
- condition.context: concentration: 1 μM, replicates: in singlicate; n = 1
The entries below are paired with their reported %Inh.
Dear colleague, please return just the value in %, with no unit written.

Consider the following illustrative entries.
CCc1ccc(-c2ccc3c(c2)-c2c(cnn2C)S(=O)(=O)N3C)cc1 :: 10
Oc1cc(Nc2ccnc3cc(I)ccc23)ccc1F :: 9
Cc1ccc(C(=O)Nc2ccc(Nc3ccnc4cc(-c5nccs5)ccc34)cc2O)cc1.Cl :: 0
Cc1ccc(F)c(C(=O)Nc2cccc(-c3nn4ccccc4c3-c3ccnc(Nc4cccc(F)c4)n3)c2)c1F :: 14

Consider now this further compound.
Could you share which %Inh value was measured for `COc1cccc(C(=O)Nc2cccc(Oc3ccc4nc(NC(=O)C5CC5)cn4n3)c2)c1` ?
0
